Catalogue of kon values
Target: T1, human VEGF-A (human, UniProt P15692-4 27-191, limits assumed)
T1 construct: also called huVEGF-A
T1 sequence (P15692 other isoform, or with tags, fused parts or gaps limits assumed): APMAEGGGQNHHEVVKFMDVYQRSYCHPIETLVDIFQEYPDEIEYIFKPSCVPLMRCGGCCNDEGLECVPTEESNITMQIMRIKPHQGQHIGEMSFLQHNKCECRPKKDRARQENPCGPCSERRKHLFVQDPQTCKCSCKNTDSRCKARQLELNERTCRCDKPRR
Assay: SPR (Biacore), antibody captured by anti-human Fc, VEGF-A injected
Protocol: For example, approximately 9000 RU of goat anti-human Fc specific polyclonal antibody (Thermo Fisher Scientific Inc., Rockford, Ill.) diluted in 10 mM sodium acetate (pH 4.5) is directly immobilized across a CM5 research grade biosensor chip using a standard amine coupling kit according to manufacturer's instructions and procedures at 25 μg/ml. […] Binding was recorded as a function of time and kinetic rate constants were calculated.
// unit must come after the numeric part

Solved entries:
Binder	Test readout	Observed measurement
hBEW-9A8.20 (antibody, V domains shown, Humanized IgG made from pHybE vectors in HEK293 cells) VH: EIQLVQSGAEVKKPGASVKVSCKASGYTFTNYGMYWVKQAPGQGLEYMGWINTETGKPIYADDFKGRFTFTLDTSTSTAYMELRSLRSDDTAVYYCARVDYDGSFWFAYWGQGTLVTVSS VL: ETVLTQSPATLSLSPGERATLSCRASESVSTVIHWYQQKPGQQPRLLIHGASNLESGVPARFSGSGSGTDFTLTISSLEPEDFAVYFCQQHWNDPPTFGQGTKLEIK	kon	7.6e+06 M⁻¹ s⁻¹
hBEW-5C3.1 (antibody, V domains shown, Humanized IgG made from pHybE vectors in HEK293 cells) VH: EIQLVQSGSELKKPGASVKVSCKASGYTFTNYGVYWVKQAPGQGLEYMGWINTETGKPTYADDFKGRFVFSLDTSVSTAYLQISSLKAEDTAVYYCARARQLDWFVYWGQGTLVTVSS VL: DTVLTQSPATLSLSPGERATLSCRARESLTTSLSWFQQKPGQQPRLLIYGASKLESGVPARFSGSGSGTDFTLTISSLEPEDFAVYFCQQSWYDPPTFGGGTKVEIK	kon	1.1e+07 M⁻¹ s⁻¹
hBEW-9A8.17 (antibody, V domains shown, Humanized IgG made from pHybE vectors in HEK293 cells) VH: EIQLVQSGSELKKPGASVKVSCKASGYTFTNYGMYWVKQAPGQGLEYMGWINTETGKPIYADDFKGRFVFSLDTSVSTAYLQISSLKAEDTAVYYCARVDYDGSFWFAYWGQGTLVTVSS VL: ETVLTQSPATLSLSPGERATLSCRASESVSTVIHWYQQKPGQQPRLLIHGASNLESGVPARFSGSGSGTDFTLTISSLEPEDFAVYFCQQHWNDPPTFGQGTKLEIK	kon	7.9e+06 M⁻¹ s⁻¹
hBDB-4G8.7 (antibody, V domains shown, Humanized IgG made from pHybE vectors in HEK293 cells) VH: EVQLVQSGAEVKKPGASVKVSCKASGYTFTNYGMYWVRQAPGQGLEWMGWINTETGKPTYADDFKGRVTMTTDTSTSTAYMELRSLRSDDTAVYYCARTNYYYRSYIFYFDYWGQGTMVTVSS VL: AIQLTQSPSSLSASVGDRVTITCRASESVSTHMHWYQQKPGKAPKLLIYGASNLESGVPSRFSGSGSGTDFTLTISSLQPEDFATYYCQQSWNDPFTFGQGTKLEIK	kon	3.7e+07 M⁻¹ s⁻¹

Now look at this entry.
Record hBEW-9A8.11 (antibody, V domains shown, Humanized IgG made from pHybE vectors in HEK293 cells) VH: EVQLVQSGAEVKKPGASVKVSCKASGYTFTNYGMYWVRQAPGQGLEWMGWINTETGKPIYADDFKGRVTMTTDTSTSTAYMELRSLRSDDTAVYYCARVDYDGSFWFAYWGQGTLVTVSS VL: DIQMTQSPSSLSASVGDRVTITCRASESVSTVIHWYQQKPGKAPKLLIYGASNLESGVPSRFSGSGSGTDFTLTISSLQPEDFATYYCQQHWNDPPTFGQGTKLEIK , field kon: 1.5e+07 M⁻¹ s⁻¹
